Origin of measurements: the Biogen ADME set (Fang et al. 2023)

conditions: pH 6.8
readout: log10 of aqueous solubility (log10 of the value in µg/mL)
For clarity, the numbers are log10 values of aqueous solubility expressed in µg/mL.

INSERT INTO assay_data (compound, number) VALUES
  ('Cc1nc(C2(NCc3cccc(C#N)c3)CCCC2)no1', 1.68),
  ('O=C1CCCc2nc(Nc3nc(-c4ccccc4)c4ccccc4n3)ncc21', -0.80),
  ('COc1cc2c(cc1OC)CN(C(=O)C1CCCN(S(=O)(=O)c3cccs3)C1)CC2 (stereo unspecified)', 1.34),
  ('Cc1ccnc(-n2nccc2NC(=O)N2CCCN(C)CC2)c1', 1.50),
  ('Cc1cc(OCc2cc(C#N)ccc2F)ccc1N', 1.40);

Fill in the blank: the reported log10 of aqueous solubility of COc1ccnc(N2CC(n3nc(C)cc3C)C2)n1 is ____.
1.58

====

readout: fraction unbound, human plasma
Enter the number alone.

Example entries begin here.
INSERT INTO results (compound, readout, number) VALUES
  ('Cc1noc(C(C)C)c1C(=O)N1CC(C)OC(c2ccccc2)C1 (stereo not drawn)', 'fraction unbound, human plasma', 0.152),
  ('CC(C)(Oc1ccc(-c2cnc(N)c(-c3ccc(Cl)cc3)c2)cc1)C(=O)O', 'fraction unbound, human plasma', 0.0007);

// next entry
Fill in the blank: the reported fraction unbound, human plasma of Cc1cccnc1Nc1cccc(C2CCCN(CC(=O)Nc3nccs3)C2)n1 (stereo not drawn) is ____.
0.0152

====

Parameter MDR1-MDCK efflux ratio: see the listing below.
Enter the number alone.

INSERT INTO results (testsmiles, number) VALUES
  ('CC(C)C[C@@H](CO)n1cc(-c2ccccc2Cn2cccn2)nn1', 6.29),
  ('Cc1ccc(CNC(=O)CN2CCC(n3nnc4cc(C)ccc43)CC2)cc1', 3.73),
  ('CC(C)(C)NC(=O)Cn1nc(C(c2ccccc2)c2ccccc2)oc1=O', 4.07);

Fill in the blank: the reported MDR1-MDCK efflux ratio of O=C(c1ccc(F)c(F)c1)N1CCN(C(=O)c2nc(Cl)ccc2Cl)CC1 is ____.
4.42

Fill in the blank: the reported MDR1-MDCK efflux ratio of CCCOc1ccn2c(C(C)=O)cc(-c3ccccc3S(C)(=O)=O)c2c1 is ____.
1.33

====

Parameter aqueous solubility: see the listing below.
conditions: pH 6.8
All answers are understood in mg/mL, so give the number only.

Example entries begin here.
INSERT INTO assay_data (testsmiles, readout, number) VALUES
  ('Cc1nc(Cn2ncc3ccccc3c2=O)cs1', 'aqueous solubility', 0.0451),
  ('CN(C)C(=O)OCCN1CCC(c2c[nH]c3ncccc23)CC1', 'aqueous solubility', 0.05),
  ('C1CCC(OCc2noc(C3CC3)n2)CC1', 'aqueous solubility', 0.0162),
  ('COc1ccc(-c2nc3cc(C)ccc3cc2CN(C)Cc2nccn2C)cc1', 'aqueous solubility', 0.018),
  ('CN1CC[C@@H](c2c(O)cc(O)c3c(=O)cc(-c4ccccc4Cl)oc23)[C@@H]1CO', 'aqueous solubility', 0.0649);

// next entry
Fill in the blank: the reported aqueous solubility of C#CCN1CCN(C(=O)CCS(C)(=O)=O)CC1 is ____.
0.0737

====

readout: intrinsic clearance, human liver microsomes (mL/min/kg)
All answers are understood in mL/min/kg, so give the number only.

INSERT INTO results (molecule, unitdescriptor, number) VALUES
  ('Cn1c(=O)oc2cc(NC(C3CC3)C3CC3)ccc21', 'mL/min/kg', 13.6);

Fill in the blank: the reported intrinsic clearance, human liver microsomes of O=C(CN1CCCC(c2ccc3cn[nH]c3n2)C1)N1CCCC1 (stereo not given) is ____.
9.13

Fill in the blank: the reported intrinsic clearance, human liver microsomes of CN(C)C(=O)CCNc1ccnc2ccc(Cl)cc12 is ____.
6.56

Fill in the blank: the reported intrinsic clearance, human liver microsomes of CN(C)C(=O)C1(Cc2ccccc2-c2ccccc2)CCN(C(=O)c2cnn(C)c2)CC1 is ____.
464

Fill in the blank: the reported intrinsic clearance, human liver microsomes of O=C(c1cccs1)N1C[C@@H]2CCCN(C(=O)c3cccs3)[C@@H]2C1 is ____.
5.78

Fill in the blank: the reported intrinsic clearance, human liver microsomes of Nc1cncc(-c2ccc(CN3CCCCC3)cc2)c1 is ____.
40.7
